This collection of values is drawn from PubChem BioAssay.

Biological target: Albumin (Bos taurus)
Experiment: bovine serum albumin binders on microarray, profiling panel, artefact control for SMM control protein annotation, biochemical, small-molecule microarray, Alexa647 label, 635/667 nm fluorescence (AID 1118);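 also: score merges 667 nm emission intensity and signal-to-noise per printed compound spot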
Conditions: BSA-A647 binding, fluorescence 635 nm, higher = more signal
Provide the reported composite z-score of each item.
I'd appreciate a reply containing only the number, no unit.

Using Albumin (Bos taurus) as the test system, report measured composite z-score of `CCN1C(C)=C(C(=O)OC)[C@@H](c2ccccc2)N2C(=O)[C@](O)(C(=O)OC)[C@@H](c3ccccc3)C(C(=O)c3ccccc3)=C12` .
0.325

Using Albumin (Bos taurus) as the test system, report measured composite z-score of `COc1cc2c(cc1OC)CN(C(=O)[C@H]1[C@@H]3C(=O)O[C@@H](c4ccccc4)[C@@H](c4ccccc4)N3[C@@H](c3ccc(O)cc3)[C@]13C(=O)Nc1ccc(C#CC4(O)CCCCCC4)cc13)CC2` .
0.693

Using Albumin (Bos taurus) as the test system, report measured composite z-score of `COc1ccc([Si](C)(C)[C@@H]2[C@@H](CCO)O[C@]3(C(=O)N(Cc4ccc(NC(=O)[C@H](C)O)cc4)c4ccccc43)[C@H]2C)cc1` .
0.762

Using Albumin (Bos taurus) as the test system, report measured composite z-score of `CSCC[C@@H]1NC(=O)CC=C[C@@H](C)COC(=O)[C@H](CCSC)NC(=O)CC=C[C@@H](C)COC1=O` .
-0.767

Using Albumin (Bos taurus) as the test system, report measured composite z-score of `C[C@H]1COC(=O)[C@H](Cc2ccccc2)NC(=O)[C@@H](C)COC(=O)[C@H](Cc2ccccc2)NC1=O` .
0.732

Using Albumin (Bos taurus) as the test system, report measured composite z-score of `COCCOC(=O)N1C(=O)[C@@]2(c3cc(C#CCNC(N)=O)ccc31)[C@H](c1ccc(OCCO)cc1)N1[C@H](c3ccccc3)[C@H](c3ccccc3)OC(=O)[C@H]1[C@@H]2C(=O)Nc1nc2ccccc2s1` .
-0.76

Using Albumin (Bos taurus) as the test system, report measured composite z-score of `COc1cccc([C@@H]2[C@@H](C)CC[C@H]3C(=O)N(C)[C@@H](C(C)C)C(=O)N23)c1` .
-0.199

Using Albumin (Bos taurus) as the test system, report measured composite z-score of `COCCOC(=O)N1C(=O)[C@@]2(c3cc(C#CC4=CCCCC4)ccc31)[C@H](C(=O)NC[C@H](O)c1ccccc1)[C@H]1C(=O)O[C@H](c3ccccc3)[C@H](c3ccccc3)N1[C@@H]2c1ccc(OCCO)cc1` .
0.723

Using Albumin (Bos taurus) as the test system, report measured composite z-score of `COCCCNC(=O)[C@@]1(c2ccc([N+](=O)[O-])cc2)CC(=O)N(C2CCCCC2)[C@@H]1c1ccc(CO)cc1` .
0.502

Using Albumin (Bos taurus) as the test system, report measured composite z-score of `C#CCCCON=C1C[C@@H](O)[C@@H](O)[C@@H]2[C@@H]3C(=O)N(Cc4ccc5c(c4)OCO5)C(=O)[C@@H]3CC[C@@H]12` .
0.352

Using Albumin (Bos taurus) as the test system, report measured composite z-score of `CO[C@H]1COC(=O)[C@H](Cc2ccccc2)NC(=O)CC=C[C@@H](C)[C@H](OC)COC(=O)CC=C[C@@H]1C` .
-0.108

Using Albumin (Bos taurus) as the test system, report measured composite z-score of `CO[C@H]1O[C@H](CO)[C@@H](OC(=O)Nc2ccccc2)[C@H](OC(=O)Nc2ccc3c(c2)OCO3)[C@@H]1OC(=O)Nc1ccc2c(c1)OCO2` .
0.536

Using Albumin (Bos taurus) as the test system, report measured composite z-score of `O=C(CS)NCCCCCCNC(=O)[C@@H]1C[C@@H]2C(=O)N[C@@H](Cc3ccccc3)C(=O)N2[C@@H]1c1ccc(O)cc1` .
-0.318
